Measured values drawn from paper PMC10397247 for this set.

Below, each of the binders is paired with its reported interaction score value.
Molecular target: T1, 4H3855-bN
T1 chain: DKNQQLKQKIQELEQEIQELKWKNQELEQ
Experiment: two-hybrid library CCNG1;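 further: natural log of median RNA to DNA barcode read ratio; higher means stronger binding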
metric-name: interaction score

{"binder": "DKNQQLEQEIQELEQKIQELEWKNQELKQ [4H3112-bN]", "reported": -0.962}
{"binder": "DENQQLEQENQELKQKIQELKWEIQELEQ [4H1257-bN]", "reported": -0.77}
{"binder": "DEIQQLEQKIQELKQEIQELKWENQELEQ [4H331-bN]", "reported": 1.17}
{"binder": "DKNQQLEQKIQELEQENQELKWEIQELKQ [4H3354-bN]", "reported": -0.269}
